- experiment.summary: Ratio of Plasma concentration in Swiss albino mouse at 50 mg/kg, ip measured after 8 hrs to GI50 for antiproliferative activity against human UACC257 cells
- Assay type: organism-based
- condition.info: in vivo

input.smiles | Ratio
Cc1ncsc1-c1ccc([C@H](C)NC(=O)[C@@H]2C[C@@H](O)CN2C(=O)[C@@H](NC(=O)CCCCCCCCCCNCCCONC(=O)c2ccc(F)c(F)c2Nc2ccc(I)cc2F)C(C)(C)C)cc1 | 3 to 20

* * *

- experiment.summary: Ratio of Plasma concentration in Swiss albino mouse at 50 mg/kg, ip measured after 8 hrs to GI50 for antiproliferative activity against human SK-MEL-28 cells
- Format: organism-based
- condition.info: in vivo

input.smiles | Ratio
Cc1ncsc1-c1ccc([C@H](C)NC(=O)[C@@H]2C[C@@H](O)CN2C(=O)[C@@H](NC(=O)CCCCCCCCCCNCCCONC(=O)c2ccc(F)c(F)c2Nc2ccc(I)cc2F)C(C)(C)C)cc1 | 3 to 20
